- assay_system: CSF-1R (Homo sapiens (Human), UniProt P07333)
- Sequence (P07333 20-972): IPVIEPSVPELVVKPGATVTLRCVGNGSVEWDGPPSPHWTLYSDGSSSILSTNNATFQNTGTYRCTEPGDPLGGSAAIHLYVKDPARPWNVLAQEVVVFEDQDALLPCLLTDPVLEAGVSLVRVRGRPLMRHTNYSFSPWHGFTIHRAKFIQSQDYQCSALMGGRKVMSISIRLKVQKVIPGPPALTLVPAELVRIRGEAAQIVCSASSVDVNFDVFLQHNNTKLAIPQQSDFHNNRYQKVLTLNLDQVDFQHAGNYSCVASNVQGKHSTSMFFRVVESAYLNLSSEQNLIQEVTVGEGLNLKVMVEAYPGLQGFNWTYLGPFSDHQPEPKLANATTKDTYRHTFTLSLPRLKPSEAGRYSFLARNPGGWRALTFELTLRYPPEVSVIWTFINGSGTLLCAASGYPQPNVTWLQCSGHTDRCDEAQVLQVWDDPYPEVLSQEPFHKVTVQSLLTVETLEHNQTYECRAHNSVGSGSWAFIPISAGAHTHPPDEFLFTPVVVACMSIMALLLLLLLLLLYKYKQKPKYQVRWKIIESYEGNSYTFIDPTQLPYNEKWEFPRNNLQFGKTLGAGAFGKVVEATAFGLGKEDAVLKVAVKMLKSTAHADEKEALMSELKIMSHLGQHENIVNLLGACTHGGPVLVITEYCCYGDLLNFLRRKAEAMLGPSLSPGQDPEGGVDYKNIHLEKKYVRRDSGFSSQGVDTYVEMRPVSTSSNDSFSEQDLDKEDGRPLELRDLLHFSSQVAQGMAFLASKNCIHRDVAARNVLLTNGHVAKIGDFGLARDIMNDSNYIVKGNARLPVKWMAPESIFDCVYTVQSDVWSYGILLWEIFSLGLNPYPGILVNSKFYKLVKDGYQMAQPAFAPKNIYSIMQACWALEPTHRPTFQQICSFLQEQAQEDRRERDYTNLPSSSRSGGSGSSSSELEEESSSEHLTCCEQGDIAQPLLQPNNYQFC
- method: Biochemical HTRF kinase assay, CSF-1R;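 note: enzyme incubated with inhibitor plus a substrate and ATP mix for one hour at room temperature before HTRF detection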
- measurement_setup: Table 2; recombinant human CSF-1R
pIC50: −log10 of the molar value.

molecule	pIC50
COc1cnc2c(Cc3cnc(OCc4ccc(C)cn4)c(OC)c3)ccnc2c1 [Example 55]	8.49
COc1cnc2c(Cc3cnc(OCc4cn5c(n4)CN(C)CC5)c(OC)c3)ccnc2c1 [Example 94]	7.85
COc1ccc2c(Cc3ccc(OCc4cc(C)on4)c(OC)c3)ccnc2c1 [Example 36]	7.40
COc1cnc2c(Cc3cnc(OCc4cc(C)on4)c(OC)c3)ccnc2c1 [Example 51]	6.98
COc1ccc(COc2ncc(Cc3ccnc4cc(-c5cnn(C)c5)cnc34)cc2OC)nc1 [Example 130]	8.80
COc1cnc2c(Cc3cnc(OCc4cnc5c(c4)OCCN5C)c(OC)c3)ccnc2c1 [Example 87]	9.08
COc1cnc2c(Cc3cnc(OCc4cnc(C)s4)c(OC)c3)ccnc2c1 [Example 42]	7.83
COc1cnc2c(Cc3cnc(OCc4cc(C)n(C)n4)c(OC)c3)ccnc2c1 [Example 82]	8.34
COc1ccc(COc2ccc(Cc3ccnc4cnccc34)cc2OC)cc1 [Example 2]	7.87
